Value source: the supplement of paper PMC3545927

Target: furin, P09958;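 further: purified furin at 1:10 enzyme:substrate in 50 mM HEPES pH 7.5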
Sequence (P09958 whole entry): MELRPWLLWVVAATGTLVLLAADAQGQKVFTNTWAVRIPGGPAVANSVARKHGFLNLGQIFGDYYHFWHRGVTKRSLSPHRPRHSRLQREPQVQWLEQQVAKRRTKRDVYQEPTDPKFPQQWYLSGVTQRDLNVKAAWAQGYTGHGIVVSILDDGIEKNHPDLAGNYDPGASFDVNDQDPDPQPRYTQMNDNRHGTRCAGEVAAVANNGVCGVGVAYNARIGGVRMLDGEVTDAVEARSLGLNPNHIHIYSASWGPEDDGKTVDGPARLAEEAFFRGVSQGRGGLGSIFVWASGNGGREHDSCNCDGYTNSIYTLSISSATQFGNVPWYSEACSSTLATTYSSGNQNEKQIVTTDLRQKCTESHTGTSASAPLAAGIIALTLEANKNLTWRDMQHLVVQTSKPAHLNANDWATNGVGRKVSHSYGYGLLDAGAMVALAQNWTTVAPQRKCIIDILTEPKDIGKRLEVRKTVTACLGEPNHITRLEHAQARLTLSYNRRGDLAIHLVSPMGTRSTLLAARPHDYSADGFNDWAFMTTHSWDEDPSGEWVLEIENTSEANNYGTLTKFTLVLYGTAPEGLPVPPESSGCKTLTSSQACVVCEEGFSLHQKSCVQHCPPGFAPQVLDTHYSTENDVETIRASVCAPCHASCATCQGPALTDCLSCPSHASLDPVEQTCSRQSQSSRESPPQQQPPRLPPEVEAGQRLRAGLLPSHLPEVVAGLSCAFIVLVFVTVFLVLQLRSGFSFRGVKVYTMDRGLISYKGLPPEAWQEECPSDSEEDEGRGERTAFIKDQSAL
Experiment: furin cleavage Z-score vs untreated control; higher = more cleavage, active = 3.5 or more, inactive = 1 or less, 8 variable residues between constant flanks
Settings: 7.5 min
This is one part of the list. The hit rate among all sequences tested is not known here.
// one of active, inactive, no free text

Prompt: Query: recorded result category for CARWKRPIDLAGNASASA [FS-3131] in this test
Response: inactive

Prompt: Outcome logged for CARWKRPAFTAGNASASA [FS-1806] in this assay:
Response: inactive

Prompt: In this assay, the call recorded for CARGLLGCIIAGNASASA [HC679] was what?
Response: inactive

Prompt: Tell me the assay call for CARWKRNLDFAGNASASA [FS-2199] please.
Response: active

Prompt: So what was the verdict on CAHDVVCCSMAGNASASA [HC2115] in this test?
Response: inactive

Prompt: What is the recorded call for this sequence in the test? CAMAKNEVFCAGNASASA [HC1440]
Response: inactive

Prompt: State the result this test recorded for CARWKRGLDWAGNASASA [FS-3214] .
Response: active
